Source listed as patent US20150004189A1.

# Target Desc: HLA DQ molecule DQB1*0202 (human)
# Measurement Notes: inhibition of radiolabeled peptide binding to purified HLA class II
Lab note - cut at 6000 nM for IC50: True if strictly below, False if not.

> print(dat)
                                     binder  assigned.class
1  DGVWEIKSDKPLKGP [Lol p 2 peptide, position 51, DGVWEIKSDKPLKGP (Peptide ID 3324.1139)]            True
2  SDAKTLVLNIKYTRP [Lol p 3 peptide, position 11, SDAKTLVLNIKYTRP (Peptide ID 3324.1142)]           False
3  DAFIAALTEALRVIA [Pha a 5 peptide, position 121, DAFIAALTEALRVIA (Peptide ID 3324.1432)]            True
4  LWEVKSAKPLTGPMN [Lol p 3 peptide, position 51, LWEVKSAKPLTGPMN (Peptide ID 3337.0031)]            True
5  NVFDEVIPTAFTVGK [Lol p 3 peptide, position 76, NVFDEVIPTAFTVGK (Peptide ID 3324.1141)]            True
6  DAYVATLTEALRVIA [Lol p 5 1 peptide, position 151, DAYVATLTEALRVIA (Peptide ID 3324.1167)]            True
7  IAFFRKEPLKECGGI [Lol p 11 peptide, position 116, IAFFRKEPLKECGGI (Peptide ID 3337.0029)]           False
8  RYANPIAFFRKEPLK [Lol p 11 peptide, position 111, RYANPIAFFRKEPLK (Peptide ID 3324.1138)]           False
